I'd be grateful if you could share measured phosphorylation enrichment for these entries.
# System: AncSZ;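 note: 11-residue human phosphosite peptides and single-mutation variants displayed on the E. coli surface, counted by deep sequencing, each peptide's frequency after selection divided by its frequency in the unselected input library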;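 note: frequency after pTyr selection over input frequency; kinase dosed for 20-30% of maximal phosphorylation in three min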
# PROTOCOL TEXT: phosphorylation enrichment, bacterial display (enrichment ratio); higher = better substrate or ligand; peptides without Tyr show the background
Numbers only.

The following sequences have reported results that may help.
I am curious: what phosphorylation enrichment value has been reported for CTTIHYNFMWN [TP53_Y234_C238W_YF] ?
1.43

Can you look up the measured phosphorylation enrichment of PMQLPYDSTWE [PDGFRB_Y589] for me?
0.975

Reported phosphorylation enrichment, sequence MGRVNYGAFIN [GLB1_Y485_YF] : ____
0.567

For every item in the list below, what is its measured phosphorylation enrichment?
1. ANNPLYKEATP [ITGB3_Y773_S778P]
2. GGDGSYVSVPL [TNNI3K_Y425_S430L]
3. MSSLYYANALF [HOXB7_Y6_T9A]
4. TSLAQYDSNSK [BMX_Y216]
5. ACCLLYHGDVV [TUBA4A_Y319_R320H]
6. FEPWVYSLSFE [PRKDC_Y647_F649L_YF]

[0.58, 0.692, 1.04, 0.622, 0.918, 1.27]

The following sequences each have a reported value; give each one's phosphorylation enrichment.
1. VTRKEYFIFLE [CAMKV_Y95]
2. LNCDRYSAGLL [PDE6A_Y275_V277A]
3. NSNAAYEQSHF [LRIF1_Y714]

1: 1.11; 2: 0.919; 3: 0.575

I need phosphorylation enrichment for every entry listed below, if you could help.
1. TFQFKYPEGSS [TGM4_Y440_E437Q_YF]
2. EVRAQYEEIAQ [KRT76_Y361]
3. SQSKGYRPKLY [SIPA1L3_Y1376_G1371S]
4. TEQDPYNNIDR [MMUT_Y364_V368D]
5. SVTCTYPPALN [TP53_Y126_S127P]
6. YHRQLYHKCTH [F12_Y58]
7. GLALRYLSDHS [VWF_Y1584]
8. GLIPAYHRVIM [NMNAT1_Y64]

1: 0.841; 2: 1.19; 3: 0.719; 4: 1.08; 5: 0.886; 6: 0.886; 7: 0.873; 8: 0.881
